Tested on: MDA-MB-435
Assay: NCI 60 five-dose screen MDA-MB-435
Type: cell-based
Conditions: Homo sapiens, five-dose, read-out: LC50 (the source's name) (converted)

Compound	Tested On	CC50 (µM)
FC(F)(F)c1cc2c(Cl)ncnc2n1CCC1CCOCC1	MDA-MB-435	49
FC(F)(F)CN1CCN(CCn2c(C(F)(F)F)cc3c(Cl)ncnc32)CC1	MDA-MB-435	51.3
OC1CCC(Cn2c(C(F)(F)F)cc3c(Cl)ncnc32)CC1 (centres unmarked)	MDA-MB-435	55
FC(F)(F)c1cc2c(Cl)ncnc2n1CCN1CCOCC1	MDA-MB-435	64.6
FC(F)(F)c1cc2c(Cl)ncnc2n1CCN1CCCCC1	MDA-MB-435	67.6

----------
Tested on: UACC-257
Assay: NCI 60 five-dose screen UACC-257
Type: cell-based
Details: Homo sapiens, five-dose

Compound	Unit String	IC (TGI)
FC(F)(F)c1cc2c(Cl)ncnc2n1CCN1CCCCC1	µM	30.2
FC(F)(F)c1cc2c(Cl)ncnc2n1CCC1CCOCC1	µM	15.5
FC(F)(F)CN1CCN(CCn2c(C(F)(F)F)cc3c(Cl)ncnc32)CC1	µM	17
OC1CCC(Cn2c(C(F)(F)F)cc3c(Cl)ncnc32)CC1 (centres unmarked)	µM	14.1
FC(F)(F)c1cc2c(Cl)ncnc2n1CCN1CCOCC1	µM	30.2

----------
Test system: CAKI-1
Test: NCI 60 five-dose screen CAKI-1
Type: cell-based
Details: Homo sapiens, five-dose
IC50 overview
Quantity: IC50

Compound	Result
FC(F)(F)CN1CCN(CCn2c(C(F)(F)F)cc3c(Cl)ncnc32)CC1	25.7 µM
FC(F)(F)c1cc2c(Cl)ncnc2n1CCN1CCOCC1	56.2 µM
OC1CCC(Cn2c(C(F)(F)F)cc3c(Cl)ncnc32)CC1 (centres unmarked)	33.1 µM
FC(F)(F)c1cc2c(Cl)ncnc2n1CCC1CCOCC1	26.9 µM
FC(F)(F)c1cc2c(Cl)ncnc2n1CCN1CCCCC1	47.9 µM

----------
System: SNB-75
Assay: NCI 60 five-dose screen SNB-75
Assay type: cell-based
Conditions: Homo sapiens, five-dose, read-out: LC50 (the source's name) (converted)
Quantity: CC50 (µM)

Molecule	Recorded Number
OC1CCC(Cn2c(C(F)(F)F)cc3c(Cl)ncnc32)CC1 (centres unmarked)	49
FC(F)(F)c1cc2c(Cl)ncnc2n1CCN1CCOCC1	49
FC(F)(F)c1cc2c(Cl)ncnc2n1CCN1CCCCC1	47.9
FC(F)(F)CN1CCN(CCn2c(C(F)(F)F)cc3c(Cl)ncnc32)CC1	38.9
FC(F)(F)c1cc2c(Cl)ncnc2n1CCC1CCOCC1	39.8

----------
GI50 overview
Tested on: MDA-MB-435
Assay: NCI 60 five-dose screen MDA-MB-435
Assay type: cell-based
Conditions: Homo sapiens, five-dose

Compound	GI50 (µM)
FC(F)(F)CN1CCN(CCn2c(C(F)(F)F)cc3c(Cl)ncnc32)CC1	5.5
FC(F)(F)c1cc2c(Cl)ncnc2n1CCC1CCOCC1	5.01
FC(F)(F)c1cc2c(Cl)ncnc2n1CCN1CCCCC1	13.2
FC(F)(F)c1cc2c(Cl)ncnc2n1CCN1CCOCC1	13.2
OC1CCC(Cn2c(C(F)(F)F)cc3c(Cl)ncnc32)CC1 (centres unmarked)	12

----------
System: 786-0
Test: NCI 60 five-dose screen 786-0
Assay type: cell-based
Conditions: Homo sapiens, five-dose
IC (TGI) overview
Quantity: IC (TGI) (µM)

Molecule	Quantity	Recorded Number
FC(F)(F)c1cc2c(Cl)ncnc2n1CCN1CCCCC1	IC (TGI)	100
OC1CCC(Cn2c(C(F)(F)F)cc3c(Cl)ncnc32)CC1 (centres unmarked)	IC (TGI)	100
FC(F)(F)c1cc2c(Cl)ncnc2n1CCN1CCOCC1	IC (TGI)	100
FC(F)(F)c1cc2c(Cl)ncnc2n1CCC1CCOCC1	IC (TGI)	32.4
FC(F)(F)CN1CCN(CCn2c(C(F)(F)F)cc3c(Cl)ncnc32)CC1	IC (TGI)	60.3

----------
System: RXF 393
Assay: NCI 60 five-dose screen RXF 393
Format: cell-based
Details: Homo sapiens, five-dose
GI50 overview

Compound	GI50 (µM)
FC(F)(F)c1cc2c(Cl)ncnc2n1CCC1CCOCC1	8.71
OC1CCC(Cn2c(C(F)(F)F)cc3c(Cl)ncnc32)CC1 (centres unmarked)	12.6
FC(F)(F)CN1CCN(CCn2c(C(F)(F)F)cc3c(Cl)ncnc32)CC1	11
FC(F)(F)c1cc2c(Cl)ncnc2n1CCN1CCCCC1	15.5
FC(F)(F)c1cc2c(Cl)ncnc2n1CCN1CCOCC1	14.8

----------
Test system: HOP-92
Test: NCI 60 five-dose screen HOP-92
Type: cell-based
Conditions: Homo sapiens, five-dose
IC50 overview
Quantity: IC50 (µM)

Compound	Tested On	Unit String	Recorded Number
FC(F)(F)c1cc2c(Cl)ncnc2n1CCC1CCOCC1	HOP-92	µM	34.7
FC(F)(F)c1cc2c(Cl)ncnc2n1CCN1CCOCC1	HOP-92	µM	79.4
FC(F)(F)c1cc2c(Cl)ncnc2n1CCN1CCCCC1	HOP-92	µM	63.1
OC1CCC(Cn2c(C(F)(F)F)cc3c(Cl)ncnc32)CC1 (centres unmarked)	HOP-92	µM	74.1
FC(F)(F)CN1CCN(CCn2c(C(F)(F)F)cc3c(Cl)ncnc32)CC1	HOP-92	µM	32.4

----------
Test system: SN12C
Test: NCI 60 five-dose screen SN12C
Format: cell-based
Conditions: Homo sapiens, five-dose
GI50 overview
Quantity: GI50 (µM)

Compound	Unit String	Recorded Number
FC(F)(F)CN1CCN(CCn2c(C(F)(F)F)cc3c(Cl)ncnc32)CC1	µM	7.76
FC(F)(F)c1cc2c(Cl)ncnc2n1CCN1CCOCC1	µM	19.5
OC1CCC(Cn2c(C(F)(F)F)cc3c(Cl)ncnc32)CC1 (centres unmarked)	µM	5.37
FC(F)(F)c1cc2c(Cl)ncnc2n1CCN1CCCCC1	µM	19.5
FC(F)(F)c1cc2c(Cl)ncnc2n1CCC1CCOCC1	µM	6.61

----------
GI50 overview
Test system: OVCAR-3
Test: NCI 60 five-dose screen OVCAR-3
Format: cell-based
Settings: Homo sapiens, five-dose
Quantity: GI50 (µM)

Compound	Tested On	Unit String	Recorded Number
FC(F)(F)c1cc2c(Cl)ncnc2n1CCN1CCCCC1	OVCAR-3	µM	17.8
FC(F)(F)c1cc2c(Cl)ncnc2n1CCN1CCOCC1	OVCAR-3	µM	19.5
OC1CCC(Cn2c(C(F)(F)F)cc3c(Cl)ncnc32)CC1 (centres unmarked)	OVCAR-3	µM	8.13
FC(F)(F)CN1CCN(CCn2c(C(F)(F)F)cc3c(Cl)ncnc32)CC1	OVCAR-3	µM	14.5
FC(F)(F)c1cc2c(Cl)ncnc2n1CCC1CCOCC1	OVCAR-3	µM	12.3

----------
System: MCF7
Experiment: NCI 60 five-dose screen MCF7
Assay type: cell-based
Conditions: Homo sapiens, five-dose
IC (TGI) overview
Quantity: IC (TGI) (µM)

Compound	Quantity	Recorded Number
FC(F)(F)CN1CCN(CCn2c(C(F)(F)F)cc3c(Cl)ncnc32)CC1	IC (TGI)	42.7
OC1CCC(Cn2c(C(F)(F)F)cc3c(Cl)ncnc32)CC1 (centres unmarked)	IC (TGI)	100
FC(F)(F)c1cc2c(Cl)ncnc2n1CCN1CCOCC1	IC (TGI)	100
FC(F)(F)c1cc2c(Cl)ncnc2n1CCN1CCCCC1	IC (TGI)	75.9
FC(F)(F)c1cc2c(Cl)ncnc2n1CCC1CCOCC1	IC (TGI)	36.3

----------
CC50 overview
Tested on: HOP-92
Assay: NCI 60 five-dose screen HOP-92
Format: cell-based
Details: Homo sapiens, five-dose, read-out: LC50 (the source's name) (converted)

Molecule	Unit String	Value Modifier	CC50
FC(F)(F)c1cc2c(Cl)ncnc2n1CCC1CCOCC1	µM	=	75.9
OC1CCC(Cn2c(C(F)(F)F)cc3c(Cl)ncnc32)CC1 (centres unmarked)	µM	≥	100
FC(F)(F)c1cc2c(Cl)ncnc2n1CCN1CCCCC1	µM	≥	100
FC(F)(F)c1cc2c(Cl)ncnc2n1CCN1CCOCC1	µM	≥	100
FC(F)(F)CN1CCN(CCn2c(C(F)(F)F)cc3c(Cl)ncnc32)CC1	µM	=	66.1

----------
Tested on: NCI/ADR-RES
Assay: NCI 60 five-dose screen NCI/ADR-RES
Format: cell-based
Conditions: Homo sapiens, five-dose
IC (TGI) overview

Compound	IC (TGI)
FC(F)(F)c1cc2c(Cl)ncnc2n1CCC1CCOCC1	35.5 µM
OC1CCC(Cn2c(C(F)(F)F)cc3c(Cl)ncnc32)CC1 (centres unmarked)	100 µM
FC(F)(F)c1cc2c(Cl)ncnc2n1CCN1CCOCC1	100 µM
FC(F)(F)c1cc2c(Cl)ncnc2n1CCN1CCCCC1	64.6 µM
FC(F)(F)CN1CCN(CCn2c(C(F)(F)F)cc3c(Cl)ncnc32)CC1	46.8 µM
